# credit: patent US20150337042A1

Entries and their KD ratio (Ab1/variant Ab) values follow.
Molecular target: T1, EGFRvIII extracellular domain (EGFR (1-29)-G-(298-645)-LESRGPF-Myc-NMHTG-6His) (human, UniProt P00533 298-641)
T1 construct: also called recombinant EGFRvIII; not shown: Myc tag
Assay: SPR (Biacore), antibody captured via anti-human Fc, antigen injected
Write the value as a bare number.

May I ask what KD ratio (Ab1/variant Ab) has been recorded for Antibody O (AbO) (antibody, V domains shown, Full length IgG1; also called Antibody 0) VH: EVQLQESGPGLVKPSQTLSLTCTVSGYSIGKDFAWNWIRQPPGKGLEWMGYISYNGNTRYQPSLKSRITISRDTSKNQFFLKLNSVTAADTATYYCVTASRGFPYWGQGTLVTVSS VL: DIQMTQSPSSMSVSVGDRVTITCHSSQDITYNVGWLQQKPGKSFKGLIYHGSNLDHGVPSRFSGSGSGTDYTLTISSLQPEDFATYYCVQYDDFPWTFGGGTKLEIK ?
35.2

Then Antibody D (AbD) (antibody, V domains shown, Full length IgG1) VH: EVQLQESGPGLVKPSQTLSLTCTVSGYSISSDFAWNWIRQPPGKGLEWMGYISYSGNTRYQPSLKSRITISRDTSKNQFFLKLNSVTAADTATYYCVTAGRGFPYWGQGTLVTVSS VL: DIQMTQSPSSMSVSVGDRVTITCHSSQDINSNLGWLQQKPGKSFKGLIYHGANLHDGVPSRFSGSGSGTDYTLTISSLQPEDFATYYCVQYAEFPWTFGGGTKLEIK ?
1.5

Then Antibody P (AbP) (antibody, V domains shown, Full length IgG1) VH: EVQLQESGPGLVKPSQTLSLTCTVSGYSISHDFAWNWIRQPPGKGLEWMGYISYSGNTRYQPSLKSRITISRDTSKNQFFLKLNSVTAADTATYYCVTASWGLPWWGQGTLVTVSS VL: DIQMTQSPSSMSVSVGDRVTITCHSSQDINMNVGWLQQKPGKSFKGLIYHGAILDDGVPSRFSGSGSGTDYTLTISSLQPEDFATYYCVQYAEFPWTFGGGTKLEIK ?
8.2

Then Antibody C (AbC) (antibody, V domains shown, Full length IgG1) VH: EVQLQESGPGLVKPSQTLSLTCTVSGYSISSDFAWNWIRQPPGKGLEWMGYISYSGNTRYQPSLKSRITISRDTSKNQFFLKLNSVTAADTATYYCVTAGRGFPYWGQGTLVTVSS VL: DIQMTQSPSSMSVSVGDRVTITCHSSQDINSNIGWLQQKPGKSFKGLIYHGTNLDDGVPSRFSGSGSGTDYTLTISSLQPEDFATYYCVQYEQFPWTFGGGTKLEIK ?
2.6
